Target: SYK (Homo sapiens (Human), UniProt P43405)
pIC50: −log10 of the molar value.
Property label: pIC50

Prompt: Provide measured pIC50 on SYK (Homo sapiens (Human), UniProt P43405) for C=CC(=O)N[C@H]1CC[C@@H](n2nc(-c3ccc(Oc4ccccc4)cc3)c3c(N)ncnc32)CC1 [Compound 9] please.
Response: < 5.00

----------
Target: Brk (Homo sapiens (Human))
Sequence (Q13882 whole entry, species assumed): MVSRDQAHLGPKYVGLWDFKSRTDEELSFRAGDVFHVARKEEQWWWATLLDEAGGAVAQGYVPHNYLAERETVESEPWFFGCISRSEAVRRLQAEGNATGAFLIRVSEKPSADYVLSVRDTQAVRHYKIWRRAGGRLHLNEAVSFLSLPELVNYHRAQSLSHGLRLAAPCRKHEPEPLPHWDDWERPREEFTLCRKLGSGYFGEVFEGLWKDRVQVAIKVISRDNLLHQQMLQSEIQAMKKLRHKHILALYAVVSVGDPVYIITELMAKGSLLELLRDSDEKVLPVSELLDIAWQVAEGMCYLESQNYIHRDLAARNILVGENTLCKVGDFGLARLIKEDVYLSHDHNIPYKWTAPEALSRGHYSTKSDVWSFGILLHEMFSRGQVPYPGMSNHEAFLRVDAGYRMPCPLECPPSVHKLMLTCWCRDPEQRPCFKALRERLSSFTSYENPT
Property label: pIC50
# pIC50 is unitless: minus log10 of the molar concentration; print number only

Prompt: Provide measured pIC50 on Brk (Homo sapiens (Human)) for C=CC(=O)N[C@H]1CC[C@@H](n2nc(-c3ccc(Oc4ccccc4)cc3)c3c(N)ncnc32)CC1 please.
Response: 8.48
